# assay-overview: Half-life in human liver microsomes
# Format: in vitro ADME
# experimental-context: HLM
endpoint-name: half-life

Query: Suppose we examine the compound `CCCCCC[C@](C)(O)[C@H]1CC[C@H]2[C@@H]3C[C@H](O)[C@H]4C[C@@H](O)CC[C@]4(C)[C@H]3CC[C@@]21C` ; what half-life value has been reported?
Result: < 5 min
